assay: Single-dose pharmacokinetics, safety and tolerability of 10-minute intravenous infusion in healthy volunteers; type: in vivo, human; settings: human, plasma, 0.4 ug/kg; 0.4 μg/kg iv over 10 minutes; read-out: AUClast, mean (SD) (converted)
METRIC: AUC(0-t) (ng·h/mL)
Give just the number in ng·h/mL; leave the unit off.

Query: What does the data say about its AUC(0-t)? Entry: Nc1nc(N/N=C/C2CCCCC2)nc2c1ncn2[C@@H]1O[C@H](CO)[C@@H](O)[C@H]1O (stereo in doubt) [Binodenoson]
Response: 0.15

---

assay: Single-dose pharmacokinetics, safety and tolerability of 10-minute intravenous infusion in healthy volunteers; format: in vivo, human; conditions: human, plasma, 0.6 ug/kg; 0.6 μg/kg iv over 10 minutes; read-out: Vz, mean (SD)
METRIC: Vd

Query: What does the data say about its Vd? Entry: Nc1nc(N/N=C/C2CCCCC2)nc2c1ncn2[C@@H]1O[C@H](CO)[C@@H](O)[C@H]1O (stereo in doubt) [Binodenoson]
Response: 0.46 L/kg

The reported numbers originate from patent US20110002843A1.
